tested on: MALME-3M melanoma; assay: NCI tumour cell line growth inhibition, 48 h
# key: entry, value: TGI

{"columns": ["Compound", "Assay readout", "Endpoint value"],
 "data": [
  ["O=C(CCCN1CCC(Nc2ccc(F)cc2)(c2nnnn2C2CCCCC2)CC1)c1ccc(F)cc1", "TGI", "> 100 µM"],
  ["O=c1c2ccc(Br)cc2nc(-c2ccccc2)n1NC1OC(CO)C(O)C(O)C1O (centres undefined)", "TGI", "> 100 µM"],
  ["FC1(F)SC2CCCCCCCCCCC2C1(F)F (centres undefined)", "TGI", "59.6 µM"],
  ["CCn1cc(C(=O)O)c(=O)c2cc(F)c(N3CCNCC3)nc21", "TGI", "> 100 µM"],
  ["O=[N+]([O-])C(=C(\\Cl)NCCO)/C(Cl)=C(/Cl)Br", "TGI", "3.8 µM"],
  ["Nc1[nH]nc2c1Cc1c(n(Cc3ccc(Cl)cc3)c3ccccc13)C(=O)N2", "TGI", "52.3 µM"],
  ["CCOc1ccc(-n2cc(-c3ccc(N(C)C)cc3)[n+]3c2CCCCC3)cc1", "TGI", "14.1 µM"],
  ["CC1(C)C/C=C\\CCC(O)C(O)CCC(C)(C)C1=O (centres undefined)", "TGI", "> 100 µM"]
]}

So, O=[N+]([O-])c1ccc(N/N=C\c2ccc(O)cc2O)nc1 ? Its TGI was > 100 µM
